Biological target: human adenosine A2A receptor (Homo sapiens (Human))
Test: Adenosine receptor inhibition binding assay, [3H]ZM241385, HEK293 A2A receptor membranes
Conditions: 1 nM [3H]ZM241385, HEK293-hA2A membranes, 25° C., 1 h; Ki from IC50 by Cheng-Prusoff
Procedure: Inhibition binding assays were performed using 0.2 µg of membranes prepared from HEK293 cells infected with BacMam human adenosine A2A receptor or 1.4 µg of membranes prepared from HEK293 cells infected with BacMam human adenosine A1 receptor. […] Bound radioactivity was determined by liquid scintillation counting and inhibition curves were analysed using a four-parameter logistic equation. […]
Catalogue of A2A pKi readings, one per entry.
No unit in the answer, please; the number alone is enough.

Observe how each entry below is paired with its result.
Query: Request the reported A2A pKi associated with Cc1cc(-c2c(-c3ccccc3)nc(N)n3c(=O)n(Cc4nccn4C)nc23)cc(C)n1 [Example 1-11]
Response: 9.8

Query: Request the reported A2A pKi associated with Nc1nc(-c2ccccc2)c(-c2cc(Cl)nc(CO)c2)c2nn(C[C@H]3CCCO3)c(=O)n12 [Example 2-32]
Response: 9.6

Query: Request the reported A2A pKi associated with Cc1cc(-c2c(-c3ccccc3)nc(N)n3c(=O)n(C[C@@H]4CCCN4C)nc23)cc(C)n1 [Example 2-8]
Response: 9.0

Query: Request the reported A2A pKi associated with Cc1cc(-c2c(-c3ccccc3)nc(N)n3c(=O)n(Cc4ccnn4C)nc23)cc(C)n1 [Example 1-12]
Response: 9.0

Query: Request the reported A2A pKi associated with Cc1cc(-c2c(-c3ccccc3)nc(N)n3c(=O)n(Cc4ncco4)nc23)cc(C)n1 [Example 1-9]
Response: 9.1

Query: Request the reported A2A pKi associated with Cc1cc(-c2c(-c3ccccc3)nc(N)n3c(=O)n(Cc4nonc4C)nc23)cc(CO)n1 [Example 1-46]
Response: 9.3

Kindly review the next compound as well.
Query: Request the reported A2A pKi associated with Cc1cc(-c2c(-c3ccccc3)nc(N)n3c(=O)n(C4CCN(C(=O)OC(C)(C)C)C4)nc23)cc(C)n1 (stereo not shown) [Example 2-1]
Response: 7.7

###

Molecular target: UniProt:P30542
Sequence (P30542 whole entry): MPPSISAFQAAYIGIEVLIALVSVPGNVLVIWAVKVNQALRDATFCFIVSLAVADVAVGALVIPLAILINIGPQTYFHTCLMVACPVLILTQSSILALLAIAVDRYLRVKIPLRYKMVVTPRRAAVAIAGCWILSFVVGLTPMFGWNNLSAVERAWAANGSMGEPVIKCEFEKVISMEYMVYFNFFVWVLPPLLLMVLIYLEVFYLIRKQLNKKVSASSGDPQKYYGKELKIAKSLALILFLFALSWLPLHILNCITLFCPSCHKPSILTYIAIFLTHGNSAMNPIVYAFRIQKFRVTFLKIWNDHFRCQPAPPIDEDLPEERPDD
Experiment: Adenosine receptor inhibition binding assay, [3H]DPCPX, A1 receptor membranes
Settings: 1 nM [3H]DPCPX, 25° C., 1 h; Ki from IC50 by Cheng-Prusoff; read-out: A1 pKi (converted)
Catalogue of Ki readings, one per entry.
Express it in nM; write the number only.

Query: Request the reported Ki associated with [2H]c1c([2H])c([2H])c(-c2nc(N)n3c(=O)n(Cc4nccn4C)nc3c2-c2cc(CO)nc(OC)c2)c([2H])c1[2H]
Response: 126

Query: Request the reported Ki associated with [2H]c1c([2H])c([2H])c(-c2nc(N)n3c(=O)n(C[C@H]4CCCO4)nc3c2-c2cc(C)nc(CO)c2)c([2H])c1[2H]
Response: 501

Query: Request the reported Ki associated with [2H]c1c([2H])c([2H])c(-c2nc(N)n3c(=O)n(Cc4nccn4C)nc3c2-c2cc(Cl)nc(CO)c2)c([2H])c1[2H]
Response: 5.01

Query: Request the reported Ki associated with [2H]c1c([2H])c([2H])c(-c2nc(N)n3c(=O)n(Cc4ncoc4C)nc3c2-c2cc(Cl)nc(CO)c2)c([2H])c1[2H]
Response: 126

Query: Request the reported Ki associated with [2H]c1c([2H])c([2H])c(-c2nc(N)n3c(=O)n(Cc4ncoc4C)nc3c2-c2cc(CO)nc(OC)c2)c([2H])c1[2H]
Response: 316

Query: Request the reported Ki associated with [2H]c1c([2H])c([2H])c(-c2nc(N)n3c(=O)n(Cc4nccn4C)nc3c2-c2cc(C)nc(CO)c2)c([2H])c1[2H]
Response: 158

###

Target: human adenosine A2A receptor (Homo sapiens (Human), UniProt P29274)
Sequence (P29274 whole entry): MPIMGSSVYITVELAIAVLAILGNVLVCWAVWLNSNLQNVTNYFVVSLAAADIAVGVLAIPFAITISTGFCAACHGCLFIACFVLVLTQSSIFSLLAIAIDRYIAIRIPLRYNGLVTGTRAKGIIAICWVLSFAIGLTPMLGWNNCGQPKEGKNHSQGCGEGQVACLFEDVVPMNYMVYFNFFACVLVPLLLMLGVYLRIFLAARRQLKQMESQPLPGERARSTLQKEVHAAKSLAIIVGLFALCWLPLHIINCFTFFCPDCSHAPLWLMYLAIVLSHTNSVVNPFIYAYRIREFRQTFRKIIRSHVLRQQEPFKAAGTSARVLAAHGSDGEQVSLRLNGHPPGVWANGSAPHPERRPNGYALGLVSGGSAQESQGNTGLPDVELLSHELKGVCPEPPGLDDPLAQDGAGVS
Assay: Adenosine receptor inhibition binding assay, [3H]ZM241385, HEK293 A2A receptor membranes
Conditions: 1 nM [3H]ZM241385, HEK293-hA2A membranes, 25° C., 1 h; Ki from IC50 by Cheng-Prusoff
Protocol: Inhibition binding assays were performed using 0.2 µg of membranes prepared from HEK293 cells infected with BacMam human adenosine A2A receptor or 1.4 µg of membranes prepared from HEK293 cells infected with BacMam human adenosine A1 receptor. […] Bound radioactivity was determined by liquid scintillation counting and inhibition curves were analysed using a four-parameter logistic equation. […]
outcome-measure: A2A pKi
No unit in the answer, please; the number alone is enough.

Observe how each entry below is paired with its result.
Query: Query A2A pKi on human adenosine A2A receptor (Homo sapiens (Human), UniProt P29274) for Cc1cc(-c2c(-c3ccccc3)nc(N)n3c(=O)n(CCc4ncc[nH]4)nc23)cc(C)n1
Response: 7.9

Query: Query A2A pKi on human adenosine A2A receptor (Homo sapiens (Human), UniProt P29274) for Cc1cc(-c2c(-c3ccccc3)nc(N)n3c(=O)n(Cc4nncn4C)nc23)cc(C)n1
Response: 7.7

Query: Query A2A pKi on human adenosine A2A receptor (Homo sapiens (Human), UniProt P29274) for Cc1cc(-c2c(-c3ccccc3)nc(N)n3c(=O)n(Cc4ccn[nH]4)nc23)cc(C)n1
Response: 8.6

More entries:
Query: Query A2A pKi on human adenosine A2A receptor (Homo sapiens (Human), UniProt P29274) for Cc1cc(-c2c(-c3ccccc3)nc(N)n3c(=O)n(Cc4ncco4)nc23)cc(CO)n1
Response: 8.8

###

Catalogue of Ki readings, one per entry.
Molecular target: UniProt P30542
Experiment: Adenosine receptor inhibition binding assay, [3H]DPCPX, A1 receptor membranes
Details: 1 nM [3H]DPCPX, 25° C., 1 h; Ki from IC50 by Cheng-Prusoff; read-out: A1 pKi (converted)
Put down the number, then write its unit next to it.

Observe how each entry below is paired with its result.
Query: Request the reported Ki associated with Cc1cc(-c2c(-c3ccccc3)nc(N)n3c(=O)n(C[C@H]4CC(F)(F)CN4C)nc23)cc(C)n1
Response: 100 nM

Query: Request the reported Ki associated with [2H]c1c([2H])c([2H])c(-c2nc(N)n3c(=O)n(C[C@H]4CCCO4)nc3c2-c2cc(CO)nc(OC)c2)c([2H])c1[2H]
Response: 1260 nM

Query: Request the reported Ki associated with [2H]c1c([2H])c([2H])c(-c2nc(N)n3c(=O)n(Cc4cocn4)nc3c2-c2cc(C)nc(CO)c2)c([2H])c1[2H]
Response: 316 nM

More entries:
Query: Request the reported Ki associated with [2H]c1c([2H])c([2H])c(-c2nc(N)n3c(=O)n(Cc4ncoc4C)nc3c2-c2cc(C)nc(CO)c2)c([2H])c1[2H]
Response: 158 nM

Query: Request the reported Ki associated with [2H]c1c([2H])c([2H])c(-c2nc(N)n3c(=O)n(C[C@H]4CCCO4)nc3c2-c2cc(Cl)nc(CO)c2)c([2H])c1[2H]
Response: 158 nM

###

Catalogue of A2A pKi readings, one per entry.
Biological target: human adenosine A2A receptor (Homo sapiens (Human))
Experiment: Adenosine receptor inhibition binding assay, [3H]ZM241385, HEK293 A2A receptor membranes
Conditions: 1 nM [3H]ZM241385, HEK293-hA2A membranes, 25° C., 1 h; Ki from IC50 by Cheng-Prusoff
No unit in the answer, please; the number alone is enough.

Query: Query A2A pKi on human adenosine A2A receptor (Homo sapiens (Human)) for Cc1cc(-c2c(-c3ccccc3)nc(N)n3c(=O)n(Cc4noc(C)n4)nc23)cc(C)n1
Response: 8.7

###

Target: human adenosine A2A receptor (Homo sapiens (Human), UniProt P29274)
Experiment: Adenosine receptor inhibition binding assay, [3H]ZM241385, HEK293 A2A receptor membranes
Settings: 1 nM [3H]ZM241385, HEK293-hA2A membranes, 25° C., 1 h; Ki from IC50 by Cheng-Prusoff
Label scheme for A2A pKi: lower than 9 is Criterion not met, 9 and above is Criterion met.

Query: Confirm if A2A pKi reported for the compound Cc1ocnc1Cn1nc2c(-c3cc(Cl)nc(CO)c3)c(-c3ccc(F)cc3)nc(N)n2c1=O is 9 or above.
Response: Criterion met

Query: Confirm if A2A pKi reported for the compound Cc1ocnc1Cn1nc2c(-c3cc(Cl)nc(CO)c3)c(-c3ccccc3)nc(N)n2c1=O is 9 or above.
Response: Criterion met

Query: Confirm if A2A pKi reported for the compound Cn1ccnc1Cn1nc2c(-c3cc(Cl)nc(CO)c3)c(-c3ccc(F)cc3)nc(N)n2c1=O is 9 or above.
Response: Criterion met

Query: Confirm if A2A pKi reported for the compound Cc1cc(-c2c(-c3ccccc3)nc(N)n3c(=O)n(Cc4nn[nH]c4C)nc23)cc(C)n1 is 9 or above.
Response: Criterion not met

Query: Confirm if A2A pKi reported for the compound Cc1cc(-c2c(-c3ccccc3)nc(N)n3c(=O)n(Cc4ccn(C)n4)nc23)cc(CO)n1 is 9 or above.
Response: Criterion met

Query: Confirm if A2A pKi reported for the compound Cc1cc(-c2c(-c3ccccc3)nc(N)n3c(=O)n(C[C@H]4CCCN4C)nc23)cc(C)n1 is 9 or above.
Response: Criterion met

More entries:
Query: Confirm if A2A pKi reported for the compound COCCN1CCC[C@H]1Cn1nc2c(-c3cc(C)nc(C)c3)c(-c3ccccc3)nc(N)n2c1=O is 9 or above.
Response: Criterion not met

Query: Confirm if A2A pKi reported for the compound Cc1cc(-c2c(-c3ccccc3)nc(N)n3c(=O)n(CCN(C)c4cn[nH]c4)nc23)cc(C)n1 is 9 or above.
Response: Criterion not met

Query: Confirm if A2A pKi reported for the compound Cc1cc(-c2c(-c3ccccc3)nc(N)n3c(=O)n(C(C)c4cccs4)nc23)cc(C)n1 (stereo not drawn) is 9 or above.
Response: Criterion not met
